Value source: patent US11040981B2

Task for the reader: assign each of the following compounds its reported pIC50.
- target.under.test: TYRO3 (Homo sapiens, UniProt Q06418)
- Sequence (Q06418 41-890): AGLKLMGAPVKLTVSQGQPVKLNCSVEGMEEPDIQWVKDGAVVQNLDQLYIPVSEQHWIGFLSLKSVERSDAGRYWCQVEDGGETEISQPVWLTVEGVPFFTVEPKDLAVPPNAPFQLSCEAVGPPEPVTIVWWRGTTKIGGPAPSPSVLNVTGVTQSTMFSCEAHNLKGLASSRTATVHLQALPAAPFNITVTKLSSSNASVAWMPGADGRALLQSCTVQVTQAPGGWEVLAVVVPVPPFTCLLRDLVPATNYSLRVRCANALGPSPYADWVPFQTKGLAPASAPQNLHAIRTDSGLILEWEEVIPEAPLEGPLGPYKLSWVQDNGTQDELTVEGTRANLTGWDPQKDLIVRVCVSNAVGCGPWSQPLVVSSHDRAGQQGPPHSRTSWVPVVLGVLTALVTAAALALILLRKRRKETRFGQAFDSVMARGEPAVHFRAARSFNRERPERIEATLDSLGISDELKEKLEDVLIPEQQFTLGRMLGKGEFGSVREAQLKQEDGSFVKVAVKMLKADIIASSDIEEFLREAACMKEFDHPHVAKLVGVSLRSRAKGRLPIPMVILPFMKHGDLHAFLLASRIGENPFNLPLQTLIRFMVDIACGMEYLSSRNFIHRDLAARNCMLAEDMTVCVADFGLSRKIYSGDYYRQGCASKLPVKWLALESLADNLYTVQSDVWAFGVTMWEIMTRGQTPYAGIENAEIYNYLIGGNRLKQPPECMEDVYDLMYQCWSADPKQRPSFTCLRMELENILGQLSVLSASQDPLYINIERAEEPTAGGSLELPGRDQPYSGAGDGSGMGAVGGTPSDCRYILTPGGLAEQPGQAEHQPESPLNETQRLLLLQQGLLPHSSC
pIC50: −log10 of the molar value.

Here are 3 compounds together with their reported answers.
>>> result("COC[C@H](C)Nc1ncc2c(-c3ccc(C(=O)N4CCOCC4)cc3)cc([C@H]3CC[C@H](O)CC3)n2n1")
"≥ 7.00"
>>> result("COC[C@H](C)N(C)c1ncc2c(-c3ccnc(C)c3)cc([C@H]3CC[C@H](O)CC3)n2n1")
"5.00 to 6.00"
>>> result("C[C@H](CN(C)C)Nc1ncc2c(-c3cnn(C4COC4)c3)cc([C@H]3CC[C@H](O)CC3)n2n1")
"5.00 to 6.00"

Give pIC50 for each listed item.
1. COC[C@H](C)Nc1ncc2c(-c3cnn(C(C)(C)c4ncc(C)o4)c3)cc(C3CCC(O)CC3)n2n1 (some centres unmarked)
2. COC[C@H](C)Nc1ncc2c(-c3cnn(Cc4nnc(C)o4)c3)cc([C@H]3CC[C@H](O)CC3)n2n1
3. COC[C@H](C)Nc1ncc2c(-c3cnn(C4COC4)c3)cc(C3CCC(=O)NC3)n2n1 (some centres unmarked)
4. CCCCC[C@H](C)Nc1ncc2c(NC3CCN(C)CC3)cc([C@H]3CC[C@H](O)CC3)n2n1
5. COC[C@H](C)Nc1ncc2c(-c3cnn(C(C)(C)C(=O)N4CC5(COC5)C4)c3)cc([C@H]3CC[C@H](O)CC3)n2n1

Solution:
1: ≥ 7.00; 2: ≥ 7.00; 3: ≥ 7.00; 4: ≥ 7.00; 5: ≥ 7.00

Give pIC50 for each listed item.
1. Cc1ccc(-c2cc([C@H]3CC[C@H](O)CC3)n3nc(N[C@@H](C)COC(F)F)ncc23)cn1
2. COC[C@H](C)Nc1ncc2c(-c3cncc(C#N)c3)cc([C@H]3CC[C@H](O)CC3)n2n1
3. COC[C@H](C)Nc1ncc2c(-c3cnccc3C)cc([C@H]3CC[C@H](O)CC3)n2n1
4. COC[C@H](C)Nc1ncc2c(C3=C[C@H]4CC[C@@H](C3)N4)cc([C@H]3CC[C@H](O)CC3)n2n1

Solution:
≥ 7.00
≥ 7.00
6.00 to 7.00
≥ 7.00

Give pIC50 for each listed item.
1. COCC(C)Nc1ncc2c(-c3ccc(C(C)N4CCOCC4)cc3)cc(C3CCC(O)CC3)n2n1 (centres unmarked) [Compound 181]
2. C[C@@H](CC(F)(F)F)Nc1ncc2c(-c3ccc([S@](C)(=N)=O)nc3)cc([C@H]3CC[C@H](O)CC3)n2n1

Solution:
≥ 7.00
≥ 7.00
